Quick list: pKi per entry.
- target_or_test_system: Protein kinase C alpha type (Mus musculus)
In simple prose, pKi is minus the logarithm base ten of a concentration in moles per litre.

*Q* Could you please provide reported pKi for CC(=O)SCCCCCCOc1ccc2c(c1)N(C)[C@@H](C(C)C)C(=O)N[C@H](CO)C2 ? Thanks!
*A* 8.06

*Q* Give the measured pKi for CC(=O)SCCCCCCCOc1ccc2c(c1)N(C)[C@H](C(C)C)C(=O)N[C@@H](CO)C2
*A* 8.35

---

- target_or_test_system: UniProt Q13547
- Sequence (Q13547 whole entry): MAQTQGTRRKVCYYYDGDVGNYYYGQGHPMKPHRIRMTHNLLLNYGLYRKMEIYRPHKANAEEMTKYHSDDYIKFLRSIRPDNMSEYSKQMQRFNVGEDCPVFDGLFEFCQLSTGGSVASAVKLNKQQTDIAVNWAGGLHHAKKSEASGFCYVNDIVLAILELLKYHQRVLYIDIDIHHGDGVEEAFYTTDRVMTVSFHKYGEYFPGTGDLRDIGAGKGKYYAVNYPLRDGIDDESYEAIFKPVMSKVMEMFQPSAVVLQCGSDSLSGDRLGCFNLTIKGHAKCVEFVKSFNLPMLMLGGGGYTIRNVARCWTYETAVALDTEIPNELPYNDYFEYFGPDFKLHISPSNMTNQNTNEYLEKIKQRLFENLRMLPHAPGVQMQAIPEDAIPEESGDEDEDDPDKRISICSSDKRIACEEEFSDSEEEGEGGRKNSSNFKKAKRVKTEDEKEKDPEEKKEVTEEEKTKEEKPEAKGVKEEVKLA
- experiment_summary: Inhibition of recombinant human HDAC1 expressed in baculovirus infected Hi-5 insect cells using Ac-Lys-Tyr-Lys (epsilon-acetyl)-AMC as substrate incubated for 3 to 24 hrs by fluorescence based plate reader analysis
# reported pIC50; entries follow
FYI, pIC50 means -log10 of a concentration in mol per litre.

INSERT INTO assay_data (query_smiles, measured_number) VALUES
  ('COc1cc([C@@H]2c3cc4c(cc3C[C@H]3COC(=O)[C@@H]32)OCO4)cc(OC)c1OC(=O)CC(=O)NCc1ccc(C(=O)Nc2ccccc2N)cc1', 4.96);

Next, consider the following compound.
*Q* Report value only: pIC50, UniProt Q13547, COc1cc([C@@H]2c3cc4c(cc3C[C@H]3COC(=O)[C@@H]32)OCO4)cc(OC)c1OC(=O)CC(=O)Nc1ccc(C(=O)Nc2ccccc2N)cc1
*A* 4.96
